Target: PxGSTε3 (Plutella xylostella, UniProt O77409)
Sequence (O77409 entry or part of it): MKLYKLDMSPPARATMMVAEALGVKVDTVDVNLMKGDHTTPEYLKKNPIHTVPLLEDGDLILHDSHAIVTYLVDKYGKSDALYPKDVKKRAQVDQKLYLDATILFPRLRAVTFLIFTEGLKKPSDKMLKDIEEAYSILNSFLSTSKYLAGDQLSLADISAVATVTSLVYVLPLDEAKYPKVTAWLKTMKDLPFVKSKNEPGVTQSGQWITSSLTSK
Experiment: Inhibition of PxGSTε3 recombinant protein
Format: biochemical
Details: read-out: 100 μM Inhibition rate %
Procedure: Experiment: 100 μL of PBS buffer (100 mM, pH 7.2) was taken and added to a 96-well plate, 1 μg of PxGSTs recombinant protein and an appropriate concentration of the compounds PXG1-PXG29 of the present invention were added to each well, after uniformly mixing, and allowed to stand at 30° C. for 10 min. Then 100 μL of PBS buffer (100 mM, pH 7.2) containing 1 mM CDNB and 1 mM GSH was successively added to each well. […] Relative inhibition was calculated using the following formula: […]
Attribute Measured: inhibition at 100 µM (%)

Please review the entries below; each comes with its answer.
>>> print(df.to_string())
                                   compound    attribute_measured  measured_value
0  COc1cc(C(=O)NNC(=O)c2cc(-c3ccccc3)nn2-c2ccccc2)cc(OC)c1OC [PXG4]  inhibition at 100 µM            8.88
1  O=C(NNC(=O)c1cc(-c2ccccc2)nn1-c1ccccc1)c1ccc(=O)[nH]n1 [PXG27]  inhibition at 100 µM            17.6

P. COc1ccc(C2(C)NC(=O)N(NC(=O)c3cc(-c4ccccc4)nn3-c3ccccc3)C2=O)cc1 (stereo not shown) [PXG14]
Q. O=C(CC12C[C@H]3C[C@H](C1)C[C@@H](C2)C3)NNC(=O)c1cc(-c2ccccc2)nn1-c1ccccc1 [PXG26]
Ask: Among P and Q , whose measured inhibition at 100 µM is the smaller figure? Your answer should be the label attached to the chosen record.
Reply: Q
(Q: 7.12%, P: 15.3%)
